Molecular target: CYP 3A4 (Homo sapiens, UniProt P08684)
Construct: from tissue; host or cells: human liver microsomes
Sequence (P08684 whole entry): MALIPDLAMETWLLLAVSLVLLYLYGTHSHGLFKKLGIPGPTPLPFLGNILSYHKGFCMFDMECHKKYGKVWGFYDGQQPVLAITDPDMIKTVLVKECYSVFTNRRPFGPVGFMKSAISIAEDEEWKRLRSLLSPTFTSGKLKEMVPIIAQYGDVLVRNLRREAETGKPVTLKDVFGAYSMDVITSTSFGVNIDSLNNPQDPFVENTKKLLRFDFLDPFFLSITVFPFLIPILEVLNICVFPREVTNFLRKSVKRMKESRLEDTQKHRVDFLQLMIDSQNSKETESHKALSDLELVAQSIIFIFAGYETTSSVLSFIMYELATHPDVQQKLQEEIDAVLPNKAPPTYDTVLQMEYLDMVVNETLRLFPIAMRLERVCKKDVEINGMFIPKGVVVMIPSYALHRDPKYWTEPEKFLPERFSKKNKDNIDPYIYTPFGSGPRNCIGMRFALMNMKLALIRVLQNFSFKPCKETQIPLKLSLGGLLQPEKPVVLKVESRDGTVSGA
Assay: CYP inhibition in human liver microsomes, 3A4
Format: in vitro ADME
Conditions: pH 7.4, @ 10 μM concn
measure: inhibition at 10 μM

Take a look at these entries with their results.
C=CC(=O)N1CC2CC(n3nc(-c4ccc(-c5cnn(C)c5)cc4)c4c(N)ncnc43)CC2C1 (stereo not drawn)
< 50%
C=CC(=O)N1CC2CC(n3nc(-c4ccc5c(c4)oc4ccccc45)c4c(N)ncnc43)CC2C1 (stereo not drawn)
< 50%

In the following, a different compound is considered.
The reported value for C=CC(=O)N1CC2CC(n3c(Br)c(-c4ccc(Oc5ccccc5)cc4)c4c(N)ncnc43)CC2C1 (stereo not drawn) in terms of inhibition at 10 μM is < 50%

====

Molecular target: recombinant purified human BTK (Homo sapiens, UniProt Q06187)
Sequence (Q06187 whole entry): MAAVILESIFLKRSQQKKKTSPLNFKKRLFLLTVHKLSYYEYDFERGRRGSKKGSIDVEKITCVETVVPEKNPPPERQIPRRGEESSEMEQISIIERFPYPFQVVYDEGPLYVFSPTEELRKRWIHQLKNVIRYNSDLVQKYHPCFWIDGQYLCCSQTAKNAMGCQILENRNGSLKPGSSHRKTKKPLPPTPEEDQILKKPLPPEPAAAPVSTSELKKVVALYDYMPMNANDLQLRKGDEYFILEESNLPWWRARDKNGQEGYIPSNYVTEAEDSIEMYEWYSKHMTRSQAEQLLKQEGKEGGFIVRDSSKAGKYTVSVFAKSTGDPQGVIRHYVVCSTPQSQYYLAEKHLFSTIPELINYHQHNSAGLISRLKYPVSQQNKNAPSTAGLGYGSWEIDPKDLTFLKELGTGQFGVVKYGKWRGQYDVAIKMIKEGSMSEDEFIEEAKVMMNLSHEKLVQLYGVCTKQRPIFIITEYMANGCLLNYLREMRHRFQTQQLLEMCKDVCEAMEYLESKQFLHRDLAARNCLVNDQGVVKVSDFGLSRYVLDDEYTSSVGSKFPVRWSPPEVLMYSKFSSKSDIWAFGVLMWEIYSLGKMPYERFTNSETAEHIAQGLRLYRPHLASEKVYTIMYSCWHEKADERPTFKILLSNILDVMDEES
Assay: In vitro BTK kinase assay on ADP Glo platform
Conditions: 2 hr room temperature, read-out: In-vitro BTK inhibitory activity: IC50
pIC50: −log10 of the molar value.
measure: pIC50

C=CC(=O)N1CC2CC(n3nc(-c4ccc5nc(-c6ccccc6)oc5c4)c4c(N)ncnc43)CC2C1 (stereo not shown) [Compound 19]
8.40
N#C/C(=C\C1CC1)C(=O)N1CC2CC(n3nc(-c4ccc(Oc5ccccc5)cc4)c4c(N)ncnc43)CC2C1 (stereo not shown) [Compound 28]
7.80
CN(C)C/C=C/C(=O)N1CC2CC(n3nc(-c4ccc(Oc5ccccc5)cc4)c4c(N)ncnc43)CC2C1 (stereo not shown) [Compound 24]
8.60
C=CC(=O)N1CC2CC(n3nc(-c4ccc(-c5nnc(-c6ccccn6)s5)cc4)c4c(N)ncnc43)CC2C1 (stereo not shown) [Compound 39]
8.85
C=CC(=O)N1CC2CN(c3ccc(Cn4nc(-c5ccc(Oc6ccccc6)cc5)c5c(N)ncnc54)cn3)CC2C1 (stereo not shown) [Compound 3]
8.10

I = CN(C)C/C=C/C(=O)N1CC2CC(n3nc(-c4ccc(C(=O)Nc5cnccn5)cc4)c4c(N)ncnc43)CC2C1 (stereo not shown) [Compound 49]
II = C=CC(=O)N1CC2CC(n3nc(-c4ccc5ncoc5c4)c4c(N)ncnc43)CC2C1 (stereo not shown) [Compound 17]
input: // pick larger pIC50 from pair: I vs II API: response body contains the label of the selected item.
output: I

====

Target: recombinant purified human BTK (Homo sapiens, UniProt Q06187)
Test: In vitro BTK kinase assay on ADP Glo platform
Details: 2 hr room temperature, read-out: In-vitro BTK inhibitory activity: IC50
pIC50: −log10 of the molar value.
measure: pIC50

These solved cases illustrate the format of a correct answer.
C=CC(=O)N1CC2CC(n3nc(-c4ccc(C(=O)Nc5cc(C)ccn5)c(OC)c4)c4c(N)ncnc43)CC2C1 (stereo not drawn) [Compound 29]
8.92
C=CS(=O)(=O)N1CC2CC(n3c(=O)n(-c4ccc(Oc5ccccc5)cc4)c4c(N)ncnc43)CC2C1 (stereo not drawn) [Compound 33]
8.82

A = Cc1ccnc(NC(=O)c2ccc(-c3nn(C4CC5CN(C(=O)/C=C/CN(C)C)CC5C4)c4ncnc(N)c34)cc2)c1 (stereo not drawn) [Compound 45]
B = CN(C)C/C=C/C(=O)N1CC2CC(n3nc(-c4ccc(Oc5ccccc5)cc4)c4c(N)ncnc43)CC2C1 (stereo not drawn) [Compound 48]
C = CN(C)C/C=C/C(=O)N1CC2CC(n3nc(-c4ccc(C(=O)Nc5cc(C(F)(F)F)ccn5)cc4)c4c(N)ncnc43)CC2C1 (stereo not drawn) [Compound 51]
D = C=CC(=O)N1CC2CC(n3nc(-c4ccc5c(c4)CCS5)c4c(N)ncnc43)CC2C1 (stereo not drawn) [Compound 7]
input: Put these in order: smallest pIC50 first, largest last. # answer = labels listed in requested order
output: C, B, A, D

====

Biological target: CYP 2C9 (Homo sapiens, UniProt P11712)
Construct: from tissue; host or cells: human liver microsomes
Sequence (P11712 whole entry): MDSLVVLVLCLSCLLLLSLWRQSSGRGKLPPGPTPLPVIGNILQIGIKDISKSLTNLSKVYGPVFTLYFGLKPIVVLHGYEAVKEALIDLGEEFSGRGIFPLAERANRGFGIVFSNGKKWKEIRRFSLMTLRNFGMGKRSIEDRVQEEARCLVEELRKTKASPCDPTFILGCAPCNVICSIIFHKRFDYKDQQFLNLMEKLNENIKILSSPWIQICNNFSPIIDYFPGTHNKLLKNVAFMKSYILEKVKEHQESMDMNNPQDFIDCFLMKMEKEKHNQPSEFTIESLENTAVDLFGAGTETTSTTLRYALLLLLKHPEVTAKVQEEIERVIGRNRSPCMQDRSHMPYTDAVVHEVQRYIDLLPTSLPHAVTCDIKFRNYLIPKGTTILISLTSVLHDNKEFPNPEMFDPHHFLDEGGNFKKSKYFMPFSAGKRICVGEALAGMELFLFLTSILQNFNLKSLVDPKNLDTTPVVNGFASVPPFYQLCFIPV
Assay: CYP inhibition in human liver microsomes, 2C9
Assay type: in vitro ADME
Settings: pH 7.4, @ 10 μM concn
measure: inhibition at 10 μM

Consider the worked cases shown below.
C=CC(=O)N1CC2CC(n3nc(-c4ccc(NC(=O)c5ccccc5)cc4)c4c(N)ncnc43)CC2C1 (stereo not drawn)
< 50%
Cc1ccnc(NC(=O)c2ccc(-c3nn(C4CC5CN(C(=O)/C=C/CN(C)C)CC5C4)c4ncnc(N)c34)cc2)c1 (stereo not drawn)
< 50%

Consider the record given below.
Form field inhibition at 10 μM, entry C=CC(=O)N1CC2CC(n3nc(-c4ccc5sccc5c4)c4c(N)ncnc43)CC2C1 (stereo not drawn) : < 50%

# credit: patent US9840509B2
